Values from patent US20040024024A1

Target: Human recombinant MMP-2 (Homo sapiens, UniProt P08253)
Construct: made in house; host or cells: MMP-2-transfected p2AHT2 cells
Sequence (P08253 110-660): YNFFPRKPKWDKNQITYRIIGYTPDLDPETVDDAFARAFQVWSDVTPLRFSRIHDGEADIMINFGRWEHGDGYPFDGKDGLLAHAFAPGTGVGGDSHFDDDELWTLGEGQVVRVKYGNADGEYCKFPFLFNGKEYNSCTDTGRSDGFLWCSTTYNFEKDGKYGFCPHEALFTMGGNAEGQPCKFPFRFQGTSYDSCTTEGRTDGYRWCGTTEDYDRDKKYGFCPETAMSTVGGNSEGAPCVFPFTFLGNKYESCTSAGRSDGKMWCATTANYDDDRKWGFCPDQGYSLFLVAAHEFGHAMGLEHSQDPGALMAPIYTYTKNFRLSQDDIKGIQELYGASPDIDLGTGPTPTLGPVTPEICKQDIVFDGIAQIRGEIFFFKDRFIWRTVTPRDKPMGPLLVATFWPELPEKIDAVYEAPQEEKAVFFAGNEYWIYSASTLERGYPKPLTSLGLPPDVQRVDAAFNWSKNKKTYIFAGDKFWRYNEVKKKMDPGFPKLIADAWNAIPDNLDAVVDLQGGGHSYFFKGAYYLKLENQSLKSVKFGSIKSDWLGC
Experiment: In vitro MMP inhibition, IC50 determination (fluorogenic substrate I)
Type: biochemical
Conditions: value outside parenthesis
Metric: IC50 (nM)
The reply should contain only the number, in nM.

>>> result_number("COc1ccc(-c2nnn(CCCOc3ccc(S(=O)(=O)C4(C(=O)NO)CCOCC4)cc3)n2)cc1 [Example 252]")
47.9
>>> result_number("CC(CCOc1ccc(S(=O)(=O)C2(C(=O)NO)CCOCC2)cc1)C(=O)c1cccs1 (stereo not drawn) [Example 276]")
17.4
>>> result_number("O=C(NO)C1(S(=O)(=O)c2ccc(OCCCc3nc(-c4c(Cl)cccc4Cl)no3)cc2)CCOCC1 [Example 214]")
15.8

Endpoint output: IC50 of COCCN1CCC(C(=O)NO)(S(=O)(=O)c2ccc(OCCCn3cc(-c4ccc(F)cc4)cn3)cc2)CC1 [Example 222] . Value?
138

Returns the measured IC50 for the input compound. Input: CC(C)Cc1ccc(-c2nnc(CCCOc3ccc(S(=O)(=O)C4(C(=O)NO)CCOCC4)cc3)o2)cc1 [Example 179]
247

May I ask what IC50 has been recorded for Cc1cc(OC(F)(F)F)ccc1NC(=O)CCCOc1ccc(S(=O)(=O)C2(C(=O)NO)CCOCC2)cc1 [Example 229] ?
12.2

* * *

target: Human recombinant MMP-1 (Homo sapiens, UniProt P03956); construct: made in house; host or cells: MMP-1-transfected HT-1080 cells (spent media); assay: In vitro MMP inhibition, Ki determination (fluorogenic substrate II); assay type: biochemical; settings: value in parentheses
Sequence (P03956 100-469): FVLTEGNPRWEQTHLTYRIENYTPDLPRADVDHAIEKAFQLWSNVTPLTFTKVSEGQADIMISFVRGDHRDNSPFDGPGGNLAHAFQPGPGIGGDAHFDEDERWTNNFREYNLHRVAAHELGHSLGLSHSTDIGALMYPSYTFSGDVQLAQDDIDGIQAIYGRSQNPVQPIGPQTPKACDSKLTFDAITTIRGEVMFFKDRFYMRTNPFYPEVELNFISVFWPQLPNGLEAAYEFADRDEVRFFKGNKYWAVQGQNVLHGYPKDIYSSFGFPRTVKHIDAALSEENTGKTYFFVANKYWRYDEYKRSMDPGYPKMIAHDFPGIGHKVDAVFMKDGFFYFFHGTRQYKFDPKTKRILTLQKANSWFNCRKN
Metric: Ki

>>> result("O=C(NO)C1(S(=O)(=O)c2ccc(OCCCc3cccc(-c4cc5ccccc5s4)c3)cc2)CCOCC1 [Example 633]")
"> 10 µM"
>>> result("COCCN1CCC(C(=O)NO)(S(=O)(=O)c2ccc(OCCc3cccc(-c4ccccc4F)c3)cc2)CC1 [Example 540]")
"> 10 µM"
>>> result("CCCCc1ccc(CCCOc2ccc(S(=O)(=O)C3(C(=O)NO)CCOCC3)cc2)cn1 [Example 533]")
"> 10 µM"

Fill in the blank: the reported Ki of O=C(NO)C1(S(=O)(=O)c2ccc(OCCCc3cccc(-c4coc5ccccc45)c3)cc2)CCOCC1 [Example 634] is ____.
> 10 µM

Using the record for COCCN1CCC(C(=O)NO)(S(=O)(=O)c2ccc(OCCCc3cccc(-c4ccccc4F)c3)cc2)CC1 [Example 512] , report its Ki.
> 10 µM

Look up Ki for this compound: COCCN1CCC(C(=O)NO)(S(=O)(=O)c2ccc(OCCc3cccc(-c4ccc(F)cc4)c3)cc2)CC1 [Example 544]
> 10 µM

Which Ki value belongs to O=C(CCCOc1ccc(S(=O)(=O)C2(C(=O)NO)CCOCC2)cc1)Nc1cccc(I)c1 [Example 570] ?
3.06 µM

Request the reported Ki associated with CCN1CCC(C(=O)NO)(S(=O)(=O)c2ccc(OCCCSc3nc4ccccc4s3)cc2)CC1 [Example 591]
> 10 µM

Return reported Ki; argument: CCN1CCC(C(=O)NO)(S(=O)(=O)c2ccc(OCCCc3cccc(-c4ccc(Cl)cc4)c3)cc2)CC1 [Example 526]
> 10 µM

Which Ki value belongs to O=C(NO)C1(S(=O)(=O)c2ccc(OCCCc3cccc(-c4ccccc4O)c3)cc2)CCOCC1 [Example 636] ?
> 10 µM

Consider the compound shown here: COCCN1CCC(C(=O)NO)(S(=O)(=O)c2ccc(OCCc3cccc(-c4ccccn4)c3)cc2)CC1 [Example 548] What is its recorded Ki?
> 10 µM

Please look up its Ki: COCCN1CCC(C(=O)NO)(S(=O)(=O)c2ccc(OCCc3cccc(-c4cccc(F)c4)c3)cc2)CC1 [Example 545]
> 10 µM

Record request: Ki value, item O=C(NO)C1(S(=O)(=O)c2ccc(OCCc3ccc(-c4ccc(O)cc4)cc3)cc2)CCOCC1 [Example 531]
> 10 µM
